Target: hSA (Homo sapiens)
Assay: hSA binding assay (hSA-coated microtiter plate, streptavidin-polyHRP/ABTS, OD 405 nm)
Is Binding, Exp 2 at least 0.2? Then rule met. If not, rule not met.

Recorded results for 4 sequences are shown here.
biopolymerSequence | assignedClass
RLIDDICPCLW [Compound 6, RLIDDI-LW, "-" represents cysteine-proline-cysteine] | rule met
KVIEDICPCLW [Compound 64, KVIEDI-LW, "-" represents cysteine-proline-cysteine] | rule not met
RLISDICPCLW [Compound 98, RLISDI-LW, "-" represents cysteine-proline-cysteine] | rule met
KQIEDICPCLW [Compound 47, KQIEDI-LW, "-" represents cysteine-proline-cysteine] | rule met

Query sequence follows.
Exercise: Does the reported Binding, Exp 2 for KLIQDICPCLW [Compound 51, KLIQDI-LW, "-" represents cysteine-proline-cysteine] fall at or above the 0.2 mark?
Key: rule not met

----------
Target: hSA (Homo sapiens, UniProt P02768)
Sequence (P02768 25-609): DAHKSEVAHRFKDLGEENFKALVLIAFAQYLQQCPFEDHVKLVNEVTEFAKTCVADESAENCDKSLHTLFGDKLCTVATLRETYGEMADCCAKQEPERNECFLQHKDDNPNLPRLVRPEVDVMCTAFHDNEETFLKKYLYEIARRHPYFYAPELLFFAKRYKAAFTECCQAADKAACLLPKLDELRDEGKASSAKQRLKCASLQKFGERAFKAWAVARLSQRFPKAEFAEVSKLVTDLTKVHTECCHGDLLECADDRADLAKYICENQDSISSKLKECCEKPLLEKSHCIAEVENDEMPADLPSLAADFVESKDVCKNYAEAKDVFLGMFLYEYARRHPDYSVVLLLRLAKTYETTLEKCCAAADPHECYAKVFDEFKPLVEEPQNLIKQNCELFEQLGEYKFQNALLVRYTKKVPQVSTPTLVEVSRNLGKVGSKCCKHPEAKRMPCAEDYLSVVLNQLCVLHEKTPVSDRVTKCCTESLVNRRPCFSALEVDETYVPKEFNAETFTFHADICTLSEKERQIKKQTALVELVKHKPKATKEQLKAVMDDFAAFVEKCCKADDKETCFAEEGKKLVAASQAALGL
Assay: hSA binding assay (hSA-coated microtiter plate, streptavidin-polyHRP/ABTS, OD 405 nm)
Please respond with reported Binding, Exp 1 for every item in the list.
One number for each entry.

Solved cases (5 shown):
biopolymerSequence | tgt | Binding, Exp 1
KTIEDICPCLW [Compound 22, KTIEDI-LW, "-" represents cysteine-proline-cysteine] | hSA (Homo sapiens, UniProt P02768) | 0.06947
KLIEDFCPCLW [Compound 44, KLIEDF-LW, "-" represents cysteine-proline-cysteine] | hSA (Homo sapiens, UniProt P02768) | 0.1836
RLIEDICPCLH [Compound 63, RLIEDI-LH, "-" represents cysteine-proline-cysteine] | hSA (Homo sapiens, UniProt P02768) | 1.877
RLIESICPCLW [Compound 61, RLIESI-LW, "-" represents cysteine-proline-cysteine] | hSA (Homo sapiens, UniProt P02768) | 1.238
KLIEDICPCVW [Compound 15, KLIEDI-VW, "-" represents cysteine-proline-cysteine] | hSA (Homo sapiens, UniProt P02768) | 0.05545

Hi, could you look up Binding, Exp 1 for each item in my list?
1. KLIEYICPCLW [Compound 53, KLIEYI-LW, "-" represents cysteine-proline-cysteine]
2. RIIEDICPCLW [Compound 40, RIIEDI-LW, "-" represents cysteine-proline-cysteine]
3. RLIENICPCLW [Compound 14, RLIENI-LW, "-" represents cysteine-proline-cysteine]
4. KLFEDICPCLW [Compound 33, KLFEDI-LW, "-" represents cysteine-proline-cysteine]
5. KQIEDICPCLW [Compound 47, KQIEDI-LW, "-" represents cysteine-proline-cysteine]

Key:
0.3109
0.1632
0.05331
0.1213
0.2411

Hi, could you look up Binding, Exp 1 for each item in my list?
1. KLQEDICPCLW [Compound 31, KLQEDI-LW, "-" represents cysteine-proline-cysteine]
2. RVIEDICPCLW [Compound 19, RVIEDI-LW, "-" represents cysteine-proline-cysteine]
3. RLIEDICPCTW [Compound 32, RLIEDI-TW, "-" represents cysteine-proline-cysteine]
4. KLIEDICPCLQ [Compound 42, KLIEDI-LQ, "-" represents cysteine-proline-cysteine]
5. RLIEDTCPCLW [Compound 27, RLIEDT-LW, "-" represents cysteine-proline-cysteine]

Key:
1: 0.1033; 2: 0.06391; 3: 0.1126; 4: 0.1651; 5: 0.08956
